Values from patent US20150160214A1

- target.or.system: T1, Recombinant human vWF A1-1261 (amino acids D1261-P1471), N-terminal truncated variant (human, UniProt P04275 1261-1471)
- T1 construct: Lacks the linker residues Q1238-E1260; also called truncated A1
- protocol.summary: thermal unfolding enthalpy of 2 µM A1-1261 (Trp fluorescence) against peptide concentration, single site binding model
pKd: −log10 of the molar value.
endpoint.label: pKd

| binder | result |
| --- | --- |
| H-QEPGGLVVPPTDAPVSPTTLYVE-OH (Synthetic peptide; also called free N-terminal peptide; N-terminal linker peptide) [N-terminal peptide (QEPGGLVVPPTDAPVSPTTLYVE) corresponding to vWF residues Q1238-E1260] | ~4.34 |
